Every entry's value here was drawn from patent US20190218188A1.

Assay: Log P by HPLC on reversed phase columns (EEC directive 79/831 Annex V.A8)
Assay type: physicochemical
Details: reversed phase HPLC column; method [a]: LC-UV, acidic range, 0.1% formic acid in water and acetonitrile as eluent (linear gradient 10% to 95% acetonitrile)
recorded-metric: chromatographic logP

N#Cc1cncn1CC(Cl)(Cc1cccc(F)c1F)C1(Cl)CC1 (centres unmarked) : 3.25
N#Cc1cncn1CC(F)(Cc1cccc(F)c1F)C1(Cl)CC1 (centres unmarked) : 2.98
